# Target Under Test: T1, human DLL3 (ACRO, DLL3-H52H4) (human, UniProt Q9NYJ7 27-492)
# T1 construct: Bought
# T1 sequence: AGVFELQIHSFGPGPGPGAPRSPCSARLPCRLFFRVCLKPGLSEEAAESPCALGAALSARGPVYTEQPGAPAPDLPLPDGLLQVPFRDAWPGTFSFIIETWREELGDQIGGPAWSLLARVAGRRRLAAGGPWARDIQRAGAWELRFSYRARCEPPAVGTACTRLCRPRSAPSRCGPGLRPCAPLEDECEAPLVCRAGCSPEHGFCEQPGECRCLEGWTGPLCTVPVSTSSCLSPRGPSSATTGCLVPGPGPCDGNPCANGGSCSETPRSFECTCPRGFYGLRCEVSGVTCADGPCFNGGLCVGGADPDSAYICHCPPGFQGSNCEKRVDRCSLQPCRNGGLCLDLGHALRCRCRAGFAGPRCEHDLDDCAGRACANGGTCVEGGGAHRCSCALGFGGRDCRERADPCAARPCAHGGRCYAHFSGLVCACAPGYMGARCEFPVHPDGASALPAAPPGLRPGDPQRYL
# Experimental Protocol: SPR Biacore 8K, Ab captured on Protein A
Group membership follows koff per the scheme lower bin (below 0.0007 s⁻¹), middle bin (0.0007 s⁻¹ to below 0.001 s⁻¹), upper bin (0.001 s⁻¹ or more)

{"columns": ["Binder", "Answer Label"],
 "data": [
  ["hu30L4H8 (antibody, human IgG1, kappa, V domains shown) VH: EVRLVQFGAVVKKPGASVKVSCKASGYTFTDYYMNWVRQAPGQSLEWMGIINPYTGDTSYNQKFRGRVTLTVDKSSSTAYMELSSLRSEDTAVYYCARYHYGPHLEGYFDVWGQGTTVTVSS VL: DIQMTQSPSSLSASVGDRVTITCKASENVGYVSWYQQKPGKAPKLLIYGASNRYTGVPSRFSGSGSGTDFTLTISSLQPEDFATYYCGQSYSYPLTFGQGTKLEIKR", "middle bin"],
  ["hu6L2H6 (antibody, human IgG1, kappa, V domains shown) VH: EVQLVQSGSELKKPGASVKVSCKASGYTFTDYYMNWVRQAPGQGLEWMGIINPYSGVTIYNHKFKGRFVLSVDKSSNTAYLQISSLKAEDTAVYYCARQDSLLDYAMDYWGQGTTVTVSS VL: DIQMTQSPSSLSASVGDRVTITCHASQGISGNMGWLQQKPGKAPKGLIYHGANLEDGVPSRFSGSGSGADYTLTISSLQPEDFATYYCVQYAQFPYTFGGGTKVEIKR", "middle bin"],
  ["M6CH1 (antibody, human IgG1, kappa, V domains shown, chimeric antibody of mAb6, human IgG1/kappa; also called M6CHI) VH: EVQLQQSGPVLVKPGASVKMSCKASGYTFTDYYMNWVKQSHGKSLEWIGIINPYSGVTIYNHKFKGKATLTVDKSSNTAYMELNSLTSEDSAVYYCARQDSLLDYAMDYWGQGTSVTVSS VL: DILMTQSPSSMSVSLGDTVSITCHASQGISGNMGWLQQKPGKSFKGLIYHGANLEDGVPSRFSGSGSGADYSLTISSLESEDFADYYCVQYAQFPYTFGGGTKLEIKR", "lower bin"],
  ["hu30L1H6 (antibody, human IgG1, kappa, V domains shown) VH: EVRLVQSGAEVKKPGASVKVSCKASGYTFTDYYMNWVRQAPGQSLEWMGIINPYNVDTSYNQKFRGRVTLTVDKSASTAYMELSSLRSEDTAVYYCARYHYGPHLEGYFDVWGQGTTVTVSS VL: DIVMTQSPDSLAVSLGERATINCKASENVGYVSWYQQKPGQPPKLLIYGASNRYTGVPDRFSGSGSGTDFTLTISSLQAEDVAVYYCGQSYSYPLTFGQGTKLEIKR", "upper bin"],
  ["hu98L2H1 (antibody, human IgG1, kappa, V domains shown) VH: EVQLVESGGGLVQPGGSLRLSCAASGFTFSDYGIHWVRQAPGKGLEWVAYISSGGYTIYYADTVKGRFTISRDNAKNSLYLQMNSLRAEDTAVYYCARGDYDDIFYTMDYWGQGTTVTVSS VL: DIQMTQSPSSLSASVGDRVTITCRASRDITKFLNWYQQKPGKAVKLLIYYTSRLHSGVPSRFSGSGSGTDYTLTISSLQPEDFATYYCQQGNTLPWTFGGGTKVEIKR", "lower bin"]
]}

Bin this entry: hu98L1H1 (antibody, human IgG1, kappa, V domains shown) VH: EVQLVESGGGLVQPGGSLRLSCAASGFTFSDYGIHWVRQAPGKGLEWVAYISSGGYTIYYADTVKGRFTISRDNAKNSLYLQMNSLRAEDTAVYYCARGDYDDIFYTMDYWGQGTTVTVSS VL: DIQMTQSPSSLSASVGDRVTITCRASRDITKFLNWYQQKPGKAPKLLIYYTSRLHSGVPSRFSGSGSGTDFTLTISSLQPEDFATYYCQQGNTLPWTFGGGTKVEIKR
upper bin

Lab note: sort hu30L1H10 (antibody, human IgG1, kappa, V domains shown) VH: EVRLVQSGAEVKKPGASVKVSCKASGYTFTDYYMNWVRQSHGQSLEWMGIINPYTGDTSYNQKFRGRVTLTVDKSASTAYMELSSLRSEDTAVYYCARYHYGPHLEGYFDVWGQGTTVTVSS VL: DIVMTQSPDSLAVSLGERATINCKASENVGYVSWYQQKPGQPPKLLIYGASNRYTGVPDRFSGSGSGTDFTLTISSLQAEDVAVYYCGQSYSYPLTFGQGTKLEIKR into the matching koff band.
middle bin

Which class is correct for the following binder? hu110L2H6 (antibody, human IgG1, kappa, V domains shown) VH: EVQLVQSGAEVKKPGASVKVSCKTSGYTFTDYYMNWVRQAPGQSLEWMGIINPYNVGTSYTQKFKGRVTITVDKSASTAYMELSSLRSEDTAVYYCARHFYDSSYLTYSTMDYWGQGTTVTVSS VL: NIVMTQSPKSLAVSLGERATINCKASENVGIFVSWYQQKPGQSPKLLIYGASNRYTGVPDRFSGSGSATDFTLTISSLQAEDVADYYCGQSHSYPLTFGQGTKLEIKR
lower bin
